Data origin: ChEMBL document CHEMBL4406921

TESTED TARGET: Mu-type opioid receptor (Homo sapiens)
Sequence (P35372 whole entry): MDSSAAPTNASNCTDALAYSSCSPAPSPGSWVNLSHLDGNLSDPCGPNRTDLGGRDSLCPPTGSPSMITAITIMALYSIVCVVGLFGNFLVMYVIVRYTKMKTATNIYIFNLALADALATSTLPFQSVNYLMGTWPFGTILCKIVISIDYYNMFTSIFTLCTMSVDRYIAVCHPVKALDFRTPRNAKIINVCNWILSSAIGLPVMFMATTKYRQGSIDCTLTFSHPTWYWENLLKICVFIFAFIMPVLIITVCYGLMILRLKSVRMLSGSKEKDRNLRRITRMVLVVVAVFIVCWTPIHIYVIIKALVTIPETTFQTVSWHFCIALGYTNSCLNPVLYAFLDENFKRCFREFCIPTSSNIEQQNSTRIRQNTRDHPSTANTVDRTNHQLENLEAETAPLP
ASSAY OVERVIEW: Displacement of [3H]-DPN from recombinant human mu opioid receptor expressed in CHO-K1 cell membranes by radioligand binding assay
This section presents compounds with their documented Ki values.
Return type: number; implicit unit nM.

| CHEMICAL STRING | MEASURED QUANTITY | TEST VALUE |
| --- | --- | --- |
| CC(=O)N(CCN1[C@@H]2CC[C@H]1C[C@@H](c1cccc(C(N)=O)c1)C2)CC1CCCCC1 | Ki | 0.1 |

## Task Please provide the recorded Ki for `NC(=O)c1cccc([C@H]2C[C@H]3CC[C@@H](C2)N3CCN(CC2CCC2)C(=O)CO)c1` , tested on Mu-type opioid receptor (Homo sapiens).
## Result 1.58

## Task Please provide the recorded Ki for `CCC(CC)CN(CCCCN1[C@@H]2CC[C@H]1C[C@@H](c1cccc(C(N)=O)c1)C2)C(=O)CO` , tested on Mu-type opioid receptor (Homo sapiens).
## Result 0.631

## Task Please provide the recorded Ki for `CS(=O)(=O)N(CCN1[C@@H]2CC[C@H]1C[C@@H](c1cccc(C(N)=O)c1)C2)CC1CCCCC1` , tested on Mu-type opioid receptor (Homo sapiens).
## Result 0.251

====

ASSAY OVERVIEW: Cmax in Sprague-Dawley rat at 5 mg/kg, po administered via gavage
Type: ADME, organism-based
Parameters: dose 5 mg/kg, route oral
ASSAY CONDITIONS: in vivo
Mark N for Cmax values under 400 ng/mL, and Y for everything at or above.

Consider the worked cases shown below.
| COMPOUND | CLASS ASSIGNMENT |
| --- | --- |
| NC(=O)c1cccc([C@H]2C[C@H]3CC[C@@H](C2)N3CCN(CC2CCCCC2)C(=O)CO)c1 | N |
| C[C@H]1CN(C[C@H](Cc2ccccc2)C(=O)O)CC[C@@]1(C)c1cccc(O)c1 | Y |
| CS(=O)(=O)CC(=O)N(CCN1[C@@H]2CC[C@H]1C[C@@H](c1cccc(C(N)=O)c1)C2)CC1CCCCC1 | Y |

Query compound follows.
## Task Could you tell me if the measured Cmax of NC(=O)c1cccc([C@H]2C[C@H]3CC[C@@H](C2)N3CCN(CC2CCCCC2)C(=O)[C@@H](O)CO)c1.O=S(=O)(O)O [AXELOPRAN SULFATE] reaches 400 ng/mL or more?
## Result N

====

ASSAY OVERVIEW: Cmax in Sprague-Dawley rat at 100 mg/kg, po administered via gavage
Type: ADME, organism-based
Set-up: dose 100 mg/kg, route oral
ASSAY CONDITIONS: in vivo
MEASURED QUANTITY: Cmax (ng/mL)
Return type: number; implicit unit ng/mL.

## Task Item under review: C[N+]1(CC2CC2)CC[C@]23c4c5ccc(O)c4O[C@H]2C(=O)CC[C@@]3(O)[C@H]1C5.[Br-] (stereo partly specified) [METHYLNALTREXONE BROMIDE] . Reported Cmax?
## Result 570

====

ASSAY OVERVIEW: Permeability coefficient, Kp in human Caco2 cells
Type: ADME, cell-based
ASSAY CONDITIONS: Caco-2, read-out: Kp
Mark Not satisfied for Papp values under 20 ×10⁻⁶ cm/s, and Satisfied for everything at or above.

Consider the worked cases shown below.
| MOLECULE | CLASS ASSIGNMENT |
| --- | --- |
| C[C@H]1CN(CCC(=O)O)CC[C@@]1(C)c1cccc(O)c1 | Not satisfied |
| NC(=O)c1cccc([C@H]2C[C@H]3CC[C@@H](C2)N3CCN(CC2CCCCC2)C(=O)[C@@H](O)CO)c1.O=S(=O)(O)O [AXELOPRAN SULFATE] | Not satisfied |
| NC(=O)c1cccc([C@H]2C[C@H]3CC[C@@H](C2)N3CCN(CC2CCCCC2)C(=O)Cc2nnn[nH]2)c1 | Not satisfied |
| CC(C)NC(=O)N(CCN1[C@@H]2CC[C@H]1C[C@@H](c1cccc(C(N)=O)c1)C2)CC1CCCCC1 | Satisfied |
| CCCCCCN(CCN1[C@@H]2CC[C@H]1C[C@@H](c1cccc(C(N)=O)c1)C2)C(=O)CO | Satisfied |
| NC(=O)c1cccc([C@H]2C[C@H]3CC[C@@H](C2)N3CCN(CC2CCCC2)C(=O)CO)c1 | Not satisfied |
| CS(=O)(=O)CC(=O)N(CCN1[C@@H]2CC[C@H]1C[C@@H](c1cccc(C(N)=O)c1)C2)CC1CCCCC1 | Not satisfied |

## Task Could you tell me if the measured Papp of `NC(=O)c1cccc([C@H]2C[C@H]3CC[C@@H](C2)N3CCN(CCc2ccccc2)C(=O)CO)c1` reaches 20 ×10⁻⁶ cm/s or more?
## Result Not satisfied
